- TGT: FGFR3 (h) (Homo sapiens)
- Sequence (P22607 23-806): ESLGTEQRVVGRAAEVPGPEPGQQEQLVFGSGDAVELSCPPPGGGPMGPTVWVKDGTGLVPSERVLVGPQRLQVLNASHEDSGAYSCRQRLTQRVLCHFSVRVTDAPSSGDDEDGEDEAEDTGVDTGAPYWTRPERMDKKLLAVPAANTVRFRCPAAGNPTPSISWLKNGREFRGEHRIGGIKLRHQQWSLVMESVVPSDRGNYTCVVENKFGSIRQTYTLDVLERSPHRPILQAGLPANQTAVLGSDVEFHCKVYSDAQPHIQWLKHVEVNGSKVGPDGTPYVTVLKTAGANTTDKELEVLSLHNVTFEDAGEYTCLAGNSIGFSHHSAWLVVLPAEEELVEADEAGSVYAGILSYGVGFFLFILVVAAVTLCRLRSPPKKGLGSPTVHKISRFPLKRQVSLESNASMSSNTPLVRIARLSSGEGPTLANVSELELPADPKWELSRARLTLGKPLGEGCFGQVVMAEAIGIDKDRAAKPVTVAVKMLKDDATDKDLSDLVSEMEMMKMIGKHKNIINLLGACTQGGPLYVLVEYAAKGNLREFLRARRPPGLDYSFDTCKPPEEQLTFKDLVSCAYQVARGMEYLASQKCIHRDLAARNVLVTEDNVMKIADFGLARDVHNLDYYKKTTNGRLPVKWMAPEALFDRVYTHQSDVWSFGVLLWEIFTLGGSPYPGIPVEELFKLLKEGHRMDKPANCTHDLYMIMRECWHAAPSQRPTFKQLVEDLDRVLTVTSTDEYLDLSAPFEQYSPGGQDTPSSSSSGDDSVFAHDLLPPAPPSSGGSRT
- TEST_NAME: FGFR3 (enzymatic assay), TR-FRET
- Assay type: biochemical
- CONDITION_PARAMETERS: read-out: FGFR 3 pIC50 (converted)
Below: a set of entries, each annotated with reported IC50.
PROPERTY_MEASURED: IC50 (nM)

                                   compound  property_measured  data_value
0  COc1cc(OC)c(F)c(N(Cc2ncc[nH]2)c2ccc3ncc(-c4cnn(CCCN)c4)nc3n2)c1               IC50        1.29
1  COc1cc(OC)c(F)c(N(Cc2ncc[nH]2)c2ccc3ncc(-c4cnn(C(CO)CCl)c4)nc3n2)c1 (stereo not shown)               IC50        1.32
2  COc1cc(OC)c(F)c(/N=c2\ccc3ncc(-c4cnn(C)c4)nc3n2C)c1F (single isomer, unassigned)               IC50       0.363
3  COc1cc(OC)cc(N(Cc2ncc[nH]2)c2ccc3ncc(N4CCOCC4)nc3n2)c1               IC50        1.58

* * *

- TGT: UniProt:P11362
- Sequence (P11362 22-822): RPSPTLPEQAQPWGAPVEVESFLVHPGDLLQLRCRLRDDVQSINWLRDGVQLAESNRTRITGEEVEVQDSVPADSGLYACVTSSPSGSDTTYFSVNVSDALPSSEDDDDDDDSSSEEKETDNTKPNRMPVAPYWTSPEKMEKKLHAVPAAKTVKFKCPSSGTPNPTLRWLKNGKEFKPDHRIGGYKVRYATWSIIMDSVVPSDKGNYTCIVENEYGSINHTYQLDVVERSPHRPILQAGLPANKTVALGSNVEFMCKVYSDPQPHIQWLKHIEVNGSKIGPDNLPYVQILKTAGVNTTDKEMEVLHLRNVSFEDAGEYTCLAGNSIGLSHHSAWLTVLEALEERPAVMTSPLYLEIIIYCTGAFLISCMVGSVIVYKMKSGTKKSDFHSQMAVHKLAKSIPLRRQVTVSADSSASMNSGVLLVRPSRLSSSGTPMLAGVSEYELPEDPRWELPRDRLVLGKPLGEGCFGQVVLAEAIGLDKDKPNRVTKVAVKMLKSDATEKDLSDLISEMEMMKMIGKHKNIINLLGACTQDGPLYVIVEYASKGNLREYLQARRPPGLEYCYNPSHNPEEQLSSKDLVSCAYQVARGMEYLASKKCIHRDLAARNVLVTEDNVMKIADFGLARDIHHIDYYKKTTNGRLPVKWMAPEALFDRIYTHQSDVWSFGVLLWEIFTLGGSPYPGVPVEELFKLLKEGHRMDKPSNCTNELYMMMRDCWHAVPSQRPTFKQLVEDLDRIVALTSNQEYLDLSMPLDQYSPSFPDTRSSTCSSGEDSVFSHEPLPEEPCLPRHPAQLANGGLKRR
- TEST_NAME: FGFR1 (enzymatic assay), TR-FRET
- Format: biochemical
- CONDITION_PARAMETERS: read-out: FGFR 1 pIC50 (converted)
Below: a set of entries, each annotated with reported IC50.
PROPERTY_MEASURED: IC50

>>> df
                                   compound             tgt  property_measured  data_value
0  COc1cc(OC)c(F)c(N(CC2CCC(=O)N2CCO)c2ccc3ncc(-c4cnn(C)c4)nc3n2)c1 (single isomer, unassigned) [Compound 218]  UniProt:P11362               IC50     3.24 nM
1  COc1cc(OC)c(F)c(N(CC(=O)O)c2ccc3ncc(-c4cnn(C)c4)nc3n2)c1 [Compound 231]  UniProt:P11362               IC50     4.79 nM
2  COc1cc(OC)c(F)c(/N=c2\ccc3ncc(-c4cnn(C)c4)nc3n2CC2CCOC2)c1F (stereo not shown) [Compound 154]  UniProt:P11362               IC50    0.661 nM
3  COc1cc(OC)c(F)c(N(Cc2nc(Br)c[nH]2)c2ccc3ncc(-c4cnn(C)c4)nc3n2)c1 [Compound 238]  UniProt:P11362               IC50    0.479 nM

* * *

- TGT: FGFR4 (h) (Homo sapiens, UniProt P22455)
- Sequence (P22455 22-802): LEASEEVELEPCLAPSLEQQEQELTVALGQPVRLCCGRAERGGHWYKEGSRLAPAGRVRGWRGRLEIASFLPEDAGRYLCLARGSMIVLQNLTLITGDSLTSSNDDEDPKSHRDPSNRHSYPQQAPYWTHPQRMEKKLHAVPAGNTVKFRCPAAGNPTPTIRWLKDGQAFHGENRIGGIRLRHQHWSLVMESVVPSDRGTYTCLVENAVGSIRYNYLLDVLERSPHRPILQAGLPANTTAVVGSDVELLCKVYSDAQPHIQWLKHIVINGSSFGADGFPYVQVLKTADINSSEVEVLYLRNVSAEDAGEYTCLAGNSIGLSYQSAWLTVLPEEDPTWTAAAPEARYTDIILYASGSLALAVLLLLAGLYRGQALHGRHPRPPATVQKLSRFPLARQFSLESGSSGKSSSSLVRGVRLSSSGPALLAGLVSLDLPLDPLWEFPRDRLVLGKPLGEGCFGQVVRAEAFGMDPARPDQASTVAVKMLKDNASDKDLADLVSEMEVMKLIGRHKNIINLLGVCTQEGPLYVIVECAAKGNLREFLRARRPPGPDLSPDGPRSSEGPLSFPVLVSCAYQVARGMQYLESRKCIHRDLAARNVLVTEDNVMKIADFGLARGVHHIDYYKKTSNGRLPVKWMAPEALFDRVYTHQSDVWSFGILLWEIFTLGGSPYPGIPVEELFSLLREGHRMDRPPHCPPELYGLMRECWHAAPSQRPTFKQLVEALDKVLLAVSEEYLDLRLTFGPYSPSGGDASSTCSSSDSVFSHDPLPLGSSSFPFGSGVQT
- TEST_NAME: FGFR4 (enzymatic assay), TR-FRET
- Type: biochemical
- CONDITION_PARAMETERS: FGFR 4 pIC50, enzymatic assay
pIC50: −log10 of the molar value.
PROPERTY_MEASURED: pIC50

                                    compound  data_value
 0  COc1cc(OC)c(F)c(N(CCN(C2COC2)C2COC2)c2ccc3ncc(-c4cnn(C)c4)nc3n2)c1 [Compound 222]        7.81
 1  COc1cc(/N=c2\ccc3ncc(-c4cnn(C)c4)nc3n2CC2CC(O)C(=O)N2)c(F)c(OC)c1 (stereo not drawn) [Compound 270]        8.64
 2  COc1cc(OC)c(F)c(N(Cc2ncc[nH]2)c2ccc3ncc(-c4cnn(C5COC5)c4)nc3n2)c1 [Compound 253]        8.72
 3  COc1cc(OC)c(F)c(N(Cc2ncc[nH]2)c2ccc3ncc(-c4cnn(CCCN)c4)nc3n2)c1 [Compound 295]        8.62
 4  COc1cc(/N=c2\ccc3ncc(-c4cnn(C)c4)nc3n2CC(C)(C)O)cc(OC)c1 [Compound 277]        8.33
 5  COc1cc(OC)c(F)c(N(Cc2ncc[nH]2)c2ccc3ncc(N4C[C@@H](C)N[C@@H](C)C4)nc3n2)c1 [Compound 259]        7.55
 6  COc1cc(OC)c(F)c(N(CCNC2COC2)c2ccc3ncc(-c4cnn(C)c4)nc3n2)c1F (single isomer, unassigned) [Compound 162]        8.59
 7  COc1cc(OC)c(F)c(N(Cc2c[nH]c(C)n2)c2ccc3ncc(-c4cnn(C)c4)nc3n2)c1 [Compound 137]        8.77
 8  COc1cc(OC)c(F)c(N(Cc2c[nH]nn2)c2ccc3ncc(-c4cnn(C)c4)nc3n2)c1 [Compound 258]        8.88
 9  COc1cc(/N=c2\ccc3ncc(-c4cnn(C)c4)nc3n2CCN)c(F)c(OC)c1 [Compound 167]        8.38
10  COc1cc(OC)cc(N(Cc2ncc[nH]2)c2ccc3ncc(-c4cccnc4)nc3n2)c1 [Compound 182]        8.63
11  COCC(O)Cn1/c(=N/c2cc(OC)cc(OC)c2F)ccc2ncc(-c3cnn(C)c3)nc21 (single isomer, unassigned) [Compound 60]        9.14
12  COc1cc(/N=c2\ccc3ncc(-c4cnn(C)c4)nc3n2CCN2CCCC2=O)cc(OC)c1 [Compound 150]        7.83
13  COc1cc(/N=c2\ccc3ncc(-c4cnn(C)c4)nc3n2CC(C)(C)O)c(F)c(OC)c1 [Compound 246]        8.68
14  COc1cc(O)c(F)c(N(Cc2ncc[nH]2)c2ccc3ncc(-c4cnn(C)c4)nc3n2)c1 [Compound 96]        8.75

* * *

- TGT: Ba/F3-KDR-transfected cells (Homo sapiens)
- Construct: BAF3-KDR (MIN IL3) pIC50; other: minus IL3
- Sequence (P35968 whole entry, change not shown): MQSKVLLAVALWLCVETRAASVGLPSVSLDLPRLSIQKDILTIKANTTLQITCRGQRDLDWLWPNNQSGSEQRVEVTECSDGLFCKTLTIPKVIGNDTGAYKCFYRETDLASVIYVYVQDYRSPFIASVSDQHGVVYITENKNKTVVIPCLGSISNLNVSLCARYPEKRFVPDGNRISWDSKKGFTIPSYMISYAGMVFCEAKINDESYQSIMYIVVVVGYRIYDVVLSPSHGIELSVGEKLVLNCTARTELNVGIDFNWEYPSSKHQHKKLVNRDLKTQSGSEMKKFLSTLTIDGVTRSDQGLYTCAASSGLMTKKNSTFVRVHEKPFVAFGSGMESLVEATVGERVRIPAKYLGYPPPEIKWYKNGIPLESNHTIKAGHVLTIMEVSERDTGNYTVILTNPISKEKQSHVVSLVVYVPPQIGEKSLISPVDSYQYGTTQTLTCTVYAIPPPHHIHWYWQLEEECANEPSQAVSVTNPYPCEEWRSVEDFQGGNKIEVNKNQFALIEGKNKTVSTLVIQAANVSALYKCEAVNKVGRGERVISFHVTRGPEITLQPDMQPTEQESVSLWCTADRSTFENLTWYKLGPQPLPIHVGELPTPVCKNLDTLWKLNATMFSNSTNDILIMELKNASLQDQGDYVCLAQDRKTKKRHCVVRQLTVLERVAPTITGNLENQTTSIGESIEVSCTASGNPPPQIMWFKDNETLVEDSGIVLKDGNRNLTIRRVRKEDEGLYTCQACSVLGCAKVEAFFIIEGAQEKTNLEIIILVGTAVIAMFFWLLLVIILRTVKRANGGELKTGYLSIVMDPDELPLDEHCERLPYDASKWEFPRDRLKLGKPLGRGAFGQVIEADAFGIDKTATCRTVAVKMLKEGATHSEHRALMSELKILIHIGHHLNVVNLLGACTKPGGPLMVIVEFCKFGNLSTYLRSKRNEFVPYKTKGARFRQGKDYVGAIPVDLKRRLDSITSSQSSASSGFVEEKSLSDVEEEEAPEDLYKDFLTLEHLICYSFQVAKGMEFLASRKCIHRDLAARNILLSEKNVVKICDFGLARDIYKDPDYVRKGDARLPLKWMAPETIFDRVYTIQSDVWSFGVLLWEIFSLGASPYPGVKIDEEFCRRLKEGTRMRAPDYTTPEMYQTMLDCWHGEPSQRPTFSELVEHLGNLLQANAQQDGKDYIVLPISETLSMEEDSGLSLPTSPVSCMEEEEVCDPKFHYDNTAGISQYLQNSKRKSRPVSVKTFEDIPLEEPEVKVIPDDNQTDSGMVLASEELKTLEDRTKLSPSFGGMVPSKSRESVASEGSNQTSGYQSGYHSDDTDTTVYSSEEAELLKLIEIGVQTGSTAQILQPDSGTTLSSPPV
- TEST_NAME: Ba/F3-KDR (minus IL3) cellular proliferation assay, Alamar Blue
- Type: cell-based
Below: a set of entries, each annotated with reported BAF3-KDR (MIN IL3) pIC50.
PROPERTY_MEASURED: BAF3-KDR (MIN IL3) pIC50

                                   compound         property_measured  data_value
0  COc1cc(OC)c(Cl)c(N(Cc2ncc[nH]2)c2ccc3ncc(-c4cnn(C)c4)nc3n2)c1  BAF3-KDR (MIN IL3) pIC50        6.89
1  COc1cc(/N=c2\ccc3ncc(-c4cnn(C)c4)nc3n2Cc2ccnn2C)c(F)c(OC)c1  BAF3-KDR (MIN IL3) pIC50       ~7.05
2  COc1ccc(Cl)c(/N=c2\ccc3ncc(-c4cnn(C)c4)nc3n2CC2CCC(=O)N2)c1Cl (stereo not shown) [Compound 92]  BAF3-KDR (MIN IL3) pIC50          <5
3  COc1cc(OC)c(F)c(N(Cc2ccnn2C)c2ccc3ncc(-c4cnn(C)c4)nc3n2)c1  BAF3-KDR (MIN IL3) pIC50        5.33
4  COc1cc(OC)c(F)c(N(CC2CCCCO2)c2ccc3ncc(-c4cnn(C)c4)nc3n2)c1 (stereo not shown)  BAF3-KDR (MIN IL3) pIC50        5.33
5  COc1cc(OC)c(F)c(N(Cc2nc[nH]n2)c2ccc3ncc(-c4cnn(C)c4)nc3n2)c1F  BAF3-KDR (MIN IL3) pIC50        6.43
6  COc1cc(OC)c(F)c(N(CCN(C2COC2)C2COC2)c2ccc3ncc(-c4cnn(C)c4)nc3n2)c1  BAF3-KDR (MIN IL3) pIC50        5.68

* * *

- TGT: Ba/F3-KDR-transfected cells (Homo sapiens)
- Construct: BAF3-KDR (MIN IL3) pIC50; other: minus IL3
- TEST_NAME: Ba/F3-KDR (minus IL3) cellular proliferation assay, Alamar Blue
- Assay type: cell-based
Where a name gives a salt, the structure may show the parent alone.
Below: a set of entries, each annotated with reported BAF3-KDR (MIN IL3) pIC50.
PROPERTY_MEASURED: BAF3-KDR (MIN IL3) pIC50

                                    compound         property_measured  result_comparator  data_value
 0  COc1cc(OC)c(F)c(/N=c2\ccc3ncc(-c4cnn(C)c4)nc3n2CC2CC2)c1F (single isomer, unassigned)  BAF3-KDR (MIN IL3) pIC50                  =        6.37
 1  COc1cc(OC)c(F)c(N(CC2COC(=O)N2)c2ccc3ncc(-c4cnn(C)c4)nc3n2)c1 (centres unmarked) [Compound 124]  BAF3-KDR (MIN IL3) pIC50                  =        5.49
 2  COc1cc(OC)c(F)c(N(Cc2ncc[nH]2)c2ccc3ncc(-c4cnn(C)c4)nc3n2)c1 [23-phosphate salt]  BAF3-KDR (MIN IL3) pIC50                  =        7.03
 3  COc1cc(OC)c(F)c(N(CC2CCC(=O)N2)c2ccc3ncc(-c4cnn(C)c4)nc3n2)c1 (centres unmarked) [Compound 46]  BAF3-KDR (MIN IL3) pIC50                  =        5.35
 4  COc1cc(/N=c2\ccc3ncc(-c4cnn(C)c4)nc3n2CC2CC(O)C(=O)N2)cc(OC)c1 (centres unmarked)  BAF3-KDR (MIN IL3) pIC50                  =        5.68
 5  COc1cc(OC)cc(N(Cc2ncc[nH]2)c2ccc3ncc(-c4cnn(C5CCNCC5)c4)nc3n2)c1  BAF3-KDR (MIN IL3) pIC50                  =        5.79
 6  COc1cc(OC)c(F)c(N(Cc2ncc[nH]2)c2ccc3ncc(-c4cnn(CCS(C)(=O)=O)c4)nc3n2)c1  BAF3-KDR (MIN IL3) pIC50                  =        5.58
 7  COc1cc(O)cc(N(Cc2ncc[nH]2)c2ccc3ncc(-c4cnn(C)c4)nc3n2)c1F  BAF3-KDR (MIN IL3) pIC50                  =        6.85
 8  COc1cc(OC)cc(N(Cc2nnco2)c2ccc3ncc(-c4cnn(C)c4)nc3n2)c1  BAF3-KDR (MIN IL3) pIC50                  =        5.18
 9  COc1cc(OC)c(F)c(N(Cc2nn[nH]n2)c2ccc3ncc(-c4cnn(C)c4)nc3n2)c1  BAF3-KDR (MIN IL3) pIC50                  <           5
10  COc1cc(OC)c(F)c(N(CC(O)COC(C)C)c2ccc3ncc(-c4cnn(C)c4)nc3n2)c1 (single isomer, unassigned) [Compound 78]  BAF3-KDR (MIN IL3) pIC50                  =        6.13
11  COc1cc(OC)c(F)c(/N=c2\ccc3ncc(-c4cnn(C)c4)nc3n2C)c1F (single isomer, unassigned)  BAF3-KDR (MIN IL3) pIC50                  =        6.22
12  COc1cc(OC)c(F)c(N(Cc2ncc[nH]2)c2ccc3ncc(-c4cnn(C)c4)nc3n2)c1 [23-lactate salt]  BAF3-KDR (MIN IL3) pIC50                  =        6.83
13  COc1cc(OC)cc(N(CCNC2COC2)c2ccc3ncc(-c4cnn(C)c4)nc3n2)c1  BAF3-KDR (MIN IL3) pIC50                  =        5.81
14  COCC(O)CN(c1ccc2ncc(-c3cnn(C)c3)nc2n1)c1cc(OC)cc(OC)c1F (single isomer, unassigned) [Compound 59]  BAF3-KDR (MIN IL3) pIC50                  =        5.73
15  COc1cc(OC)c(F)c(N(Cc2n[nH]c(=O)o2)c2ccc3ncc(-c4cnn(C)c4)nc3n2)c1  BAF3-KDR (MIN IL3) pIC50                  <           5
16  COc1cc(OC)c(F)c(N(Cc2nnc(NCCO)o2)c2ccc3ncc(-c4cnn(C)c4)nc3n2)c1  BAF3-KDR (MIN IL3) pIC50                  <           5
17  COc1cc(OC)cc(N(Cc2ncc[nH]2)c2ccc3ncc(-c4ccn(C)c4)nc3n2)c1  BAF3-KDR (MIN IL3) pIC50                  =        6.68
18  COc1cc(OC)c(F)c(N(Cc2nc(C)c[nH]2)c2ccc3ncc(-c4cnn(C)c4)nc3n2)c1  BAF3-KDR (MIN IL3) pIC50                  =        6.64
19  COc1cc(OC)c(F)c(N(CC2CCC(=O)N2C)c2ccc3ncc(-c4cnn(C)c4)nc3n2)c1 (centres unmarked) [Compound 161]  BAF3-KDR (MIN IL3) pIC50                  <           5
20  Cn1cc(-c2cnc3ccc(N(Cc4ncc[nH]4)c4c(F)c(F)cc(F)c4F)nc3n2)cn1  BAF3-KDR (MIN IL3) pIC50                  <           5
21  CNCCN(c1ccc2ncc(-c3cnn(C)c3)nc2n1)c1c(F)c(OC)cc(OC)c1F  BAF3-KDR (MIN IL3) pIC50                  =        6.48
